Study system: AKT1 E17K (Homo sapiens, UniProt P31749, E17K)
Sequence (P31749 whole entry E17K): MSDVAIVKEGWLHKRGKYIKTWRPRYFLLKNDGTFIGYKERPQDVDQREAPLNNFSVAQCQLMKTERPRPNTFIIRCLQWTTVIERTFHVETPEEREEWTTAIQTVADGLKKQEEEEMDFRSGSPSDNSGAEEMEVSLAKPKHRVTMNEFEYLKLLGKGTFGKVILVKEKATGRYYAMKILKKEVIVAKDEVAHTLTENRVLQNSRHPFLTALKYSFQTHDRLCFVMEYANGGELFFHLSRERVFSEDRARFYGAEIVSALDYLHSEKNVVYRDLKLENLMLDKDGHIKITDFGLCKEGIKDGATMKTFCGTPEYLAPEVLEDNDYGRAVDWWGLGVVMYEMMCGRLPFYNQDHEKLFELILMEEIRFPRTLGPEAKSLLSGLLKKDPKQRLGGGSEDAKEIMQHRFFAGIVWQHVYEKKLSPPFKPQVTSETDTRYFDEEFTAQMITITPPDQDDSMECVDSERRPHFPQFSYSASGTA
Measurement protocol: Live cell AKT1 E17K target engagement by NanoBRET competitive probe displacement
Condition label: HEK293 cells transfected with kinase-NanoLuciferase fusion, 2 h at 37° C.
Measured property: IC50 (nM)

These recorded examples may help you get a feel for the data.
CC(C)=CC(=O)N1CCC(N[C@H]2CCc3cc(-n4c(-c5cccnc5N)nc5ccc(-n6cccn6)nc54)ccc32)CC1
53.2
C=CC(=O)N1C[C@H]2COC[C@@H](C1)C2N[C@H]1CCc2cc(-n3c(-c4cccnc4N)nc4ccc(-n5cccn5)nc43)ccc21 (single isomer, unassigned) [Example 72]
75.2
C=CC(=O)N1C[C@@H]2[C@H](C1)[C@H]2NC1CCc2cc(-n3c(-c4cccnc4N)nc4ccc(-n5cccn5)nc43)ccc21 (single isomer, unassigned) [Example 347]
234

[A] C=CC(=O)N1CCN(N(C)C2CCc3cc(-n4c(-c5cccnc5N)nc5ccc(-n6cccn6)nc54)ccc32)CC1 (single isomer, unassigned) [Example 179]
[B] C=CC(=O)N1CCC(N[C@@H]2CCc3cc(-n4c(-c5cccnc5N)nc5ccc(-n6cccn6)nc54)ccc3C2)CC1
// which entry has the larger IC50 value, A or B ? Please indicate the selected item by its label.
A
(A: 203 nM, B: 9.37 nM)

* * *

Study system: AKT1 WT (Homo sapiens)
Sequence (P31749 whole entry): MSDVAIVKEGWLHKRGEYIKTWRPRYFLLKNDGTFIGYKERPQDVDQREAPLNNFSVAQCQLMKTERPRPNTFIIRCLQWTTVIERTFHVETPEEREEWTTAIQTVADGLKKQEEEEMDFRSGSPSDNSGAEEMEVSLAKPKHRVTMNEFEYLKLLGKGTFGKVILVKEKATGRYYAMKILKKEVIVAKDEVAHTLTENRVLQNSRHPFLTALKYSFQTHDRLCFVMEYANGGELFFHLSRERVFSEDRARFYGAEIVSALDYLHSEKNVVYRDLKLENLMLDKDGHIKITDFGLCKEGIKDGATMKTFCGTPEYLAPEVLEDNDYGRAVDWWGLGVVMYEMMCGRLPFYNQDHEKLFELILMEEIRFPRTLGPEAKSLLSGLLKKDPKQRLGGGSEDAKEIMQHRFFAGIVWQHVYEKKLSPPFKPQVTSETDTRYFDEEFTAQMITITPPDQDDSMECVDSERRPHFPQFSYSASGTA
Measurement protocol: Live cell AKT1 WT target engagement by NanoBRET competitive probe displacement
Condition label: HEK293 cells transfected with kinase-NanoLuciferase fusion, 2 h at 37° C.
pIC50: −log10 of the molar value.
Measured property: pIC50

C=CC(=O)N1CCC(N[C@@H]2c3ccc(-n4c(-c5cccnc5N)nc5ccc(-n6ccc(F)n6)nc54)cc3CC2F)C[C@@H]1C (single isomer, unassigned) [Example 272]
5.91
C=CC(=O)N1CCC(N[C@H]2CCc3cc(-n4c(-c5cccnc5N)nc5cc(C(F)(F)F)cnc54)ccc32)CC1 [Example 216]
5.63

[a] C=C(F)C(=O)N1CCC2(CC1)CC(N[C@H]1CCc3cc(-n4c(-c5cccnc5N)nc5ccc(-n6cccn6)nc54)ccc31)C2 [Example 84]
[b] C=CC(=O)N1CCC(N[C@H]2CCc3cc(-n4c(-c5cccnc5N)nc5ccc(-c6nnc(C7CC7)s6)nc54)ccc32)CC1 [Example 320]
// which entry has the larger pIC50 value, a or b ? Please indicate the selected item by its label.
a
(a: 7.47, b: 6.54)

[A] C=CC(=O)N1CCC(N[C@@H]2c3ccc(-n4c(-c5cccnc5N)nc5ccc(-n6ccc(F)n6)nc54)cc3CC2F)C[C@H]1C (single isomer, unassigned) [Example 276]
[B] C=CC(=O)N1C[C@@H]2C[C@H]1CC2N[C@H]1CCc2cc(-n3c(-c4cccnc4N)nc4ccc(-n5cccn5)nc43)ccc21 (single isomer, unassigned) [Example 136]
// which entry has the larger pIC50 value, A or B ? Please indicate the selected item by its label.
B

* * *

Study system: AKT1 WT (Homo sapiens)
Measurement protocol: Live cell AKT1 WT target engagement by NanoBRET competitive probe displacement
Condition label: HEK293 cells transfected with kinase-NanoLuciferase fusion, 2 h at 37° C.
pIC50: −log10 of the molar value.
Measured property: pIC50

These recorded examples may help you get a feel for the data.
C=CC(=O)N1CCC(N[C@H]2CCc3cc(-n4c(-c5cccnc5N)nc5cc(F)c(-n6cccn6)nc54)ccc32)CC1
6.29
C=CC(=O)N1CCC(N[C@H]2CCc3cc(-n4c(-c5cccnc5N)nc5ccc(-n6cccn6)nc54)ccc32)C[C@@H]1C (single isomer, unassigned) [Example 65]
7.53

[a] C=CC(=O)N1CCC(N[C@@H]2c3ccc(-n4c(-c5cccnc5N)nc5ccc(-n6cccn6)nc54)cc3CC2F)CC1C(F)F (single isomer, unassigned) [Example 303]
[b] C=CC(=O)N1C[C@@H]2[C@H](C1)[C@H]2NC1CCc2cc(-n3c(-c4cccnc4N)nc4ccc(-n5cccn5)nc43)ccc21 (single isomer, unassigned) [Example 347]
[c] C=CC(=O)N1CCC(N[C@H]2CCc3cc(-n4c(-c5cccnc5N)nc5ccc(-n6cccn6)nc54)ccc32)C(C)(F)C1 (single isomer, unassigned) [Example 309]
Ranking field: pIC50; order: falling. When ranking, write the labels in the order the request describes.
a, c, b

[P] C=CC(=O)N1CCC(N[C@H]2CCc3cc(-n4c(-c5cccnc5N)nc5ccc(C)nc54)ccc32)CC1
[Q] C=CC(=O)N1CCC(N[C@@H]2c3ccc(-n4c(-c5cccnc5N)nc5ccc(-n6ccc(F)n6)nc54)cc3CC2F)C[C@H]1C (single isomer, unassigned) [Example 277]
[R] C=CC(=O)N1CCC(N[C@H]2CCc3cc(-n4c(-c5cccnc5N)nc5ccc(-n6cccn6)nc54)ccc32)C(O)C1 (single isomer, unassigned) [Example 141]
[S] C=CC(=O)N1CCN(NC2CCc3cc(-n4c(-c5cccnc5N)nc5ccc(-n6cccn6)nc54)ccc32)CC1 (single isomer, unassigned) [Example 147]
Ranking field: pIC50; order: falling. When ranking, write the labels in the order the request describes.
P, S, R, Q
(P: 7.75, S: 7.49, R: 6.83, Q: 6.09)

[1] C=CC(=O)N1CCC(N[C@H]2CCc3cc(-n4c(-c5cccnc5N)nc5ccc(N6CCCC6)nc54)ccc32)CC1
[2] C=CC(=O)N1CCC(N[C@H]2CCc3cc(-n4c(-c5cccnc5N)nc5ccc(C(C)C)nc54)ccc32)CC1
// which entry has the larger pIC50 value, 1 or 2 ? Please indicate the selected item by its label.
1
(1: 6.94, 2: 5.84)

[A] C=CC(=O)N1CC2CCC(C1)C2N[C@H]1CCc2cc(-n3c(-c4cccnc4N)nc4ccc(-n5cccn5)nc43)ccc21 (some centres unmarked)
[B] C=CC(=O)N1CCC(N[C@H]2CCc3cc(-n4c(-c5cccnc5N)nc5ccc(-n6cccn6)nc54)ccc32)c2ccccc21 (single isomer, unassigned) [Example 127]
For the pair A and B , which entry has the numerically smaller recorded pIC50? Please indicate the selected item by its label.
A

[P] C=CC(=O)N1CCC(N(CC2COC2)[C@H]2CCc3cc(-n4c(-c5cccnc5N)nc5ccc(-n6cccn6)nc54)ccc32)CC1
[Q] C=CC(=O)N1CCc2cccc(C(=O)N[C@H]3CCc4cc(-n5c(-c6cccnc6N)nc6ccc(-n7cccn7)nc65)ccc43)c21
[R] C=CC(=O)N1CCC(N[C@H]2CCc3cc(-n4c(-c5cccnc5N)nc5ccc(-n6cccn6)nc54)ccc32)C(OC)C1 (single isomer, unassigned) [Example 116]
[S] C=CC(=O)N1CCC(N[C@H]2CCc3cc(-n4c(-c5cccnc5N)nc5ccc(C6CC(F)(F)C6)nc54)ccc32)CC1
Ranking field: pIC50; order: falling. When ranking, write the labels in the order the request describes.
P, R, Q, S
(P: 7.74, R: 7.49, Q: 6.92, S: 6.15)

[a] C=CC(=O)N1CCC(N[C@@H]2c3ccc(-n4c(-c5cccnc5N)nc5ccc(-n6cccn6)nc54)cc3CC2OC)CC1 (single isomer, unassigned) [Example 162]
[b] C=CS(=O)(=O)Nc1ccccc1C(=O)N[C@H]1CCc2cc(-n3c(-c4cccnc4N)nc4ccc(-n5cccn5)nc43)ccc21
For the pair a and b , which entry has the numerically smaller recorded pIC50? Please indicate the selected item by its label.
a

[1] C=CC(=O)N1CCC(F)(CN[C@H]2CCc3cc(-n4c(-c5cccnc5N)nc5ccc(-n6cccn6)nc54)ccc32)CC1
[2] C=CC(=O)N1CCC(N[C@H]2CCc3cc(-n4c(-c5cccnc5N)nc5ccc(-n6nccn6)nc54)ccc32)C[C@H]1C (single isomer, unassigned) [Example 262]
[3] C=CC(=O)N1CCC(N[C@H]2CCc3cc(-n4c(-c5cccnc5N)nc5ccc(-n6cccn6)nc54)ccc32)C[C@@H]1C(F)F (single isomer, unassigned) [Example 213]
Put the items in order so that reported pIC50 rises from first to last. When ranking, write the labels in the order the request describes.
2, 1, 3
